A collection of molecules and their measured Population Pyknosed Nuclei (%)
Test system: HEK-293T
Assay: Multiplex assay against HEK293T
Format: toxicity, cell-based
Settings: human, 24 h, 10 µM, compound concentration 10 uM, replicate 2
property.label: Population Pyknosed Nuclei (%)

1) CC(C)[C@H](CO)Nc1nc(Nc2cccc(Cl)c2)c2ncn(C(C)C)c2n1 [PURVALANOLA] :: 75
2) CCOc1ccn(-c2ccc(F)cc2)c(=O)c1C(=O)Nc1ccc(Oc2ccnc(N)c2Cl)c(F)c1 [BMS-777607] :: 2
3) Cc1c(P(=S)(c2ccccc2)c2ccccc2)n2ccccc2[n+]1C/C=C/c1ccccc1.[Br-] :: 72
4) CCOC(=O)CCNc1cc(N2CCc3ccccc3CC2)nc(-c2ccccn2)n1 :: 12
5) CC(C)c1cc(Nc2nc(N3CCC[C@H](N)C3)ncc2C(N)=O)cc(C(C)C)n1 :: 72
6) Oc1cccc(-c2nc(N3CCOCC3)c3oc4ncccc4c3n2)c1 [PI-103] :: 76
7) N#Cc1cccc(C(=O)Nc2cc(-c3ccccc3)nn2-c2ccccc2)c1 :: 62
8) CN1C(=O)[C@@H](NC(=O)c2cc3ccccc3[nH]2)N=C(c2ccccc2)c2ccccc21 [DEVAZEPIDE] :: 46
9) CCCc1cc(C)[nH]c(=O)c1CNC(=O)c1cc(-c2ccc(N3CCN(C(C)C)CC3)nc2)cc2c1cnn2C(C)C :: 74

###

A collection of compounds and their measured Population Tubulin-Different-Phenotype (%)
Tested on: HEK-293T
Assay: Multiplex assay against HEK293T;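 for Population Tubulin-Different-Phenotype (%): share of the cells with healthy nuclei that show this phenotype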
Assay type: toxicity, cell-based
Settings: human, 24 h, 1 µM, compound concentration 1 uM, replicate 1
property.label: Population Tubulin-Different-Phenotype (%)

1. Oc1cccc(-c2nc(N3CCOCC3)c3oc4ncccc4c3n2)c1 [PI-103] :: 86%
2. CC[C@H](Nc1ncnc2[nH]cnc12)c1nc2cccc(F)c2c(=O)n1-c1ccccc1 [IDELALISIB] :: 48%
3. CC[C@@H]1C(=O)N(C)c2cnc(Nc3ccc(C(=O)NC4CCN(C)CC4)cc3OC)nc2N1C1CCCC1 [BI-2536] :: 19%
4. Cc1c(Nc2ccc(S(=O)(=O)N3CCN(C)CC3)cc2F)nc2ccc(Nc3cnn(C4CC4)c3)cn2c1=O :: 65%

###

Test system: U2OS
Test: Multiplex assay against U2OS
Assay type: toxicity, cell-based
Settings: human, 24 h, 10 µM, compound concentration 10 uM, replicate 1
Population Pyknosed Nuclei (%) less than 20% is TRUE; Population Pyknosed Nuclei (%) greater than or equal to 20% is FALSE.

1. Cc1ccc(S(=O)(=O)NC2c3ccccc3Oc3ccccc32)cc1 :: TRUE
2. CCCc1cc(C)[nH]c(=O)c1CNC(=O)c1cc(-c2ccc(N3CCN(C(C)C)CC3)nc2)cc2c1cnn2C(C)C :: FALSE
3. N#CCNC(=O)c1ccc(-c2ccnc(Nc3ccc(N4CCOCC4)cc3)n2)cc1 :: FALSE
4. Cc1c(P(=S)(c2ccccc2)c2ccccc2)n2ccccc2[n+]1C/C=C/c1ccccc1.[Br-] :: FALSE
5. C=CC(=O)Nc1cc(-n2c(=O)ccc3cnc4ccc(-c5ccc(NS(C)(=O)=O)cc5)cc4c32)ccc1C :: TRUE
6. CC[C@H](Nc1ncnc2[nH]cnc12)c1nc2cccc(F)c2c(=O)n1-c1ccccc1 :: TRUE
7. Oc1cccc(-c2nc(N3CCOCC3)c3oc4ncccc4c3n2)c1 :: FALSE
8. CC(C)C[C@H](NC(=O)[C@H](Cc1ccccc1)NC(=O)CNC(=O)CNC(=O)[C@@H](N)Cc1ccc(O)cc1)C(=O)O :: TRUE
9. C[C@@H](Oc1cc(-n2cnc3ccc(CN4CCN(C)CC4)cc32)sc1C(N)=O)c1ccccc1C(F)(F)F :: FALSE
10. c1ccc(-c2oc3ncnc(NC[C@@H]4CCCO4)c3c2-c2ccccc2)cc1 :: FALSE
11. N#Cc1cccc(C(=O)Nc2cc(-c3ccccc3)nn2-c2ccccc2)c1 :: FALSE
12. CCCCCNC(=N)N/N=C/c1c[nH]c2ccc(OC)cc12.O=C(O)/C=C\C(=O)O [TEGASEROD MALEATE] :: FALSE
13. CC(Cc1ccc(O)c(O)c1)C(C)Cc1ccc(O)c(O)c1 (centres undefined) [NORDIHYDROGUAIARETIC ACID] :: TRUE
14. CCOC(=O)CCNc1cc(N2CCc3ccccc3CC2)nc(-c2ccccn2)n1 :: TRUE
